system: murine L1210 leukaemic cells; assay: L1210 in vitro growth inhibition; type: cell-based; details: Mus musculus, drug added to cultures over 70 hours, 50% reduction of counted leukaemia cells, below 1000 nM considered significant, read-out: L1210 in vitro ID50
pIC50: −log10 of the molar value.
MEASURED_METRIC: pIC50

[A] CN(C)CCNC(=O)c1cccc2c(N)c3cc([N+](=O)[O-])ccc3nc12.Cl.Cl [Compound 20, dihydrochloride]
[B] Cc1cccc2c(N)c3cccc(C(=O)NCCN(C)C)c3nc12 [Compound 13]
[C] COc1ccc2nc3c(C(=O)NCCN(C)C)cccc3c(N)c2c1 [Compound 23]
[D] CCN(CC)CCNC(=O)c1cccc2c(N)c3ccccc3nc12 [Compound 7]
[E] CN(C)CCNC(=O)c1cccc2c(N)c3cccc(N)c3nc12 [Compound 12]
Q) Please arrange the 5 compounds above from largest to smallest pIC50 value. Answer by listing the labels in the requested order.
A) B, D, E, A, C
(B: 9.48, D: 8.26, E: 7.74, A: 6.98, C: 6.29)

The values you see were collected from patent US4590277A.
